- STUDY TARGET: T1, Hse1, P38753
- T1 sequence (P38753 208-285, looked up): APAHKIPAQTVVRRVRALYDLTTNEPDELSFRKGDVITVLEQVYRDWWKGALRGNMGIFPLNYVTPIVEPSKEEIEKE
- ASSAY NAME: SPOT array
- MEASUREMENT SETUP: median of control spots 1727
SPOT intensity values for the binders below.

BINDER: NPLPKEPRLPKRKVA
SPOT intensity: 191
//
BINDER: AAHKTKPSIPPKKVE
SPOT intensity: 0
//
BINDER: NTMKKRPAPPSLPSL
SPOT intensity: 53
//
BINDER: MKRSRPSRSIPYTTP
SPOT intensity: 14
//
BINDER: PPPPPPPPPPPLPQS
SPOT intensity: 0
//
BINDER: RRLRDKYKLPIVDAD
SPOT intensity: 9
//
BINDER: TPEIPPPLPPKIMVH
SPOT intensity: 1540
//
BINDER: GKFIPSRPAPKPPSS
SPOT intensity: 0
//
BINDER: LLLLFVPDSPYDPAI
SPOT intensity: 0
//
BINDER: LTRRFPFLFPFDTRM
SPOT intensity: 126
//
BINDER: VQKRKLPLPGSIASA
SPOT intensity: 0
//
BINDER: PAPPPPPRASRPTPN
SPOT intensity: 0
//
BINDER: WTQRRGPLVVYAEDN
SPOT intensity: 1
//
BINDER: FHLNPKRSAVLYDRP
SPOT intensity: 40
//
BINDER: APERAVPILPPRNNV
SPOT intensity: 1
